Test system: A2780
procedure summary: In vitro cytotoxicity against A2780 ovarian cells using the sulforhodamine B(SRB) assay.
Format: functional, cell-based
assay context: Homo sapiens
recorded metric: IC50 (nM)
Expressed in nM, but write only the number.

IC50 measured on `C[N+]1(CCC(=O)Nc2cccc3c2C(=O)c2c(NC(=O)CC[N+]4(C)CCCCC4)cccc2C3=O)CCCCC1` = 520

IC50 measured on `CCN(CC)CCC(=O)Nc1cccc2c1C(=O)c1cccc(NC(=O)CCN(CC)CC)c1C2=O` = 320

IC50 measured on `CCN(CC)CCC(=O)Nc1ccc2c(c1)C(=O)c1cc(NC(=O)CCN(CC)CC)ccc1C2=O` = 2100

IC50 measured on `C[N+]1(CCC(=O)Nc2ccc(NC(=O)CC[N+]3(C)CCCC3)c3c2C(=O)c2ccccc2C3=O)CCCC1` = 1500

###

Test system: A2780
procedure summary: In vitro cytotoxicity against A2780 ovarian cells using the sulforhodamine B(SRB) assay.
Format: functional, cell-based
assay context: Homo sapiens
# label = bin(measured IC50), where bins are lower bin (below 500 nM), middle bin (500 nM to below 2000 nM), upper bin (2000 nM or more)

Entry `O=C(CCN1CCOCC1)Nc1cccc2c1C(=O)c1cccc(NC(=O)CCN3CCOCC3)c1C2=O` belongs to which category?
upper bin

Entry `C[N+](C)(C)CCC(=O)Nc1ccc2c(c1)C(=O)c1cc(NC(=O)CC[N+](C)(C)C)ccc1C2=O` belongs to which category?
lower bin

Entry `C[N+]1(CCC(=O)Nc2ccc3c(c2)C(=O)c2cc(NC(=O)CC[N+]4(C)CCCC4)ccc2C3=O)CCCC1` belongs to which category?
lower bin

Entry `CCN(CC)CCC(=O)Nc1ccc2c(c1)C(=O)c1ccc(NC(=O)CCN(CC)CC)cc1C2=O` belongs to which category?
upper bin

Entry `O=C(CCN1CCCCC1)Nc1cccc2c1C(=O)c1cccc(NC(=O)CCN3CCCCC3)c1C2=O` belongs to which category?
lower bin

Entry `C[N+](C)(C)CCC(=O)Nc1cccc2c1C(=O)c1c(NC(=O)CC[N+](C)(C)C)cccc1C2=O` belongs to which category?
middle bin

Entry `O=C(CCN1CCCC1)Nc1cccc2c1C(=O)c1c(NC(=O)CCN3CCCC3)cccc1C2=O` belongs to which category?
lower bin

Entry `O=C(CCN1CCOCC1)Nc1ccc2c(c1)C(=O)c1ccc(NC(=O)CCN3CCOCC3)cc1C2=O` belongs to which category?
upper bin

Entry `O=C(CCN1CCCCC1)Nc1cccc2c1C(=O)c1c(NC(=O)CCN3CCCCC3)cccc1C2=O` belongs to which category?
middle bin

Entry `CC[N+](C)(CC)CCC(=O)Nc1ccc(NC(=O)CC[N+](C)(CC)CC)c2c1C(=O)c1ccccc1C2=O` belongs to which category?
upper bin

Entry `C[N+]1(CCC(=O)Nc2cccc3c2C(=O)c2c(NC(=O)CC[N+]4(C)CCCC4)cccc2C3=O)CCCC1` belongs to which category?
middle bin

Entry `C[N+]1(CCC(=O)Nc2cccc3c2C(=O)c2cccc(NC(=O)CC[N+]4(C)CCCC4)c2C3=O)CCCC1` belongs to which category?
upper bin

Entry `O=C(CCN1CCCCC1)Nc1ccc2c(c1)C(=O)c1cc(NC(=O)CCN3CCCCC3)ccc1C2=O` belongs to which category?
lower bin

Entry `C[N+]1(CCC(=O)Nc2cccc3c2C(=O)c2cccc(NC(=O)CC[N+]4(C)CCOCC4)c2C3=O)CCOCC1` belongs to which category?
middle bin

Entry `O=C(CCN1CCCC1)Nc1ccc2c(c1)C(=O)c1ccc(NC(=O)CCN3CCCC3)cc1C2=O` belongs to which category?
upper bin

Entry `O=C(CCN1CCOCC1)Nc1ccc2c(c1)C(=O)c1cc(NC(=O)CCN3CCOCC3)ccc1C2=O` belongs to which category?
upper bin

Entry `CC[N+](C)(CC)CCC(=O)Nc1ccc2c(c1)C(=O)c1ccc(NC(=O)CC[N+](C)(CC)CC)cc1C2=O` belongs to which category?
upper bin

Entry `CN(C)CCC(=O)Nc1cccc2c1C(=O)c1c(NC(=O)CCN(C)C)cccc1C2=O` belongs to which category?
lower bin

Entry `C[N+]1(CCC(=O)Nc2ccc3c(c2)C(=O)c2cc(NC(=O)CC[N+]4(C)CCOCC4)ccc2C3=O)CCOCC1` belongs to which category?
middle bin

Entry `CCN(CC)CCC(=O)Nc1ccc(NC(=O)CCN(CC)CC)c2c1C(=O)c1ccccc1C2=O` belongs to which category?
lower bin

Entry `CC[N+](C)(CC)CCC(=O)Nc1ccc2c(c1)C(=O)c1cc(NC(=O)CC[N+](C)(CC)CC)ccc1C2=O` belongs to which category?
lower bin

Entry `C[N+]1(CCC(=O)Nc2ccc3c(c2)C(=O)c2ccc(NC(=O)CC[N+]4(C)CCCC4)cc2C3=O)CCCC1` belongs to which category?
middle bin

Entry `O=C(CCN1CCCC1)Nc1ccc2c(c1)C(=O)c1cc(NC(=O)CCN3CCCC3)ccc1C2=O` belongs to which category?
middle bin

Entry `CN(C)CCC(=O)Nc1ccc2c(c1)C(=O)c1cc(NC(=O)CCN(C)C)ccc1C2=O` belongs to which category?
upper bin

Entry `O=C(CCN1CCOCC1)Nc1cccc2c1C(=O)c1c(NC(=O)CCN3CCOCC3)cccc1C2=O` belongs to which category?
upper bin

Entry `CCN(CC)CCC(=O)Nc1cccc2c1C(=O)c1c(NC(=O)CCN(CC)CC)cccc1C2=O` belongs to which category?
middle bin

Entry `O=C(CCN1CCCC1)Nc1cccc2c1C(=O)c1cccc(NC(=O)CCN3CCCC3)c1C2=O` belongs to which category?
lower bin

Entry `CC[N+](C)(CC)CCC(=O)Nc1cccc2c1C(=O)c1cccc(NC(=O)CC[N+](C)(CC)CC)c1C2=O` belongs to which category?
middle bin

Entry `O=C(CCN1CCCC1)Nc1ccc(NC(=O)CCN2CCCC2)c2c1C(=O)c1ccccc1C2=O` belongs to which category?
lower bin

Entry `CN(C)CCC(=O)Nc1cccc2c1C(=O)c1cccc(NC(=O)CCN(C)C)c1C2=O` belongs to which category?
lower bin

Entry `C[N+](C)(C)CCC(=O)Nc1cccc2c1C(=O)c1cccc(NC(=O)CC[N+](C)(C)C)c1C2=O` belongs to which category?
middle bin

Entry `C[N+]1(CCC(=O)Nc2ccc3c(c2)C(=O)c2cc(NC(=O)CC[N+]4(C)CCCCC4)ccc2C3=O)CCCCC1` belongs to which category?
lower bin

Entry `CC[N+](C)(CC)CCC(=O)Nc1cccc2c1C(=O)c1c(NC(=O)CC[N+](C)(CC)CC)cccc1C2=O` belongs to which category?
middle bin

###

recorded metric: IC50 (µM)
Expressed in µM, but write only the number.

Observed IC50, Telomerase reverse transcriptase (Homo sapiens, UniProt O14746), `CCN(CC)CCC(=O)Nc1cccc2c1C(=O)c1c(NC(=O)CCN(CC)CC)cccc1C2=O` : 4.2

Observed IC50, Telomerase reverse transcriptase (Homo sapiens, UniProt O14746), `O=C(CCN1CCCC1)Nc1ccc2c(c1)C(=O)c1ccc(NC(=O)CCN3CCCC3)cc1C2=O` : 1.8

Observed IC50, Telomerase reverse transcriptase (Homo sapiens, UniProt O14746), `CCN(CC)CCC(=O)Nc1cccc2c1C(=O)c1cccc(NC(=O)CCN(CC)CC)c1C2=O` : 2.7

Observed IC50, Telomerase reverse transcriptase (Homo sapiens, UniProt O14746), `O=C(CCN1CCCCC1)Nc1cccc2c1C(=O)c1c(NC(=O)CCN3CCCCC3)cccc1C2=O` : 3.7

Observed IC50, Telomerase reverse transcriptase (Homo sapiens, UniProt O14746), `O=C(CCN1CCCCC1)Nc1cccc2c1C(=O)c1cccc(NC(=O)CCN3CCCCC3)c1C2=O` : 2.3

Observed IC50, Telomerase reverse transcriptase (Homo sapiens, UniProt O14746), `C[N+]1(CCC(=O)Nc2cccc3c2C(=O)c2c(NC(=O)CC[N+]4(C)CCCCC4)cccc2C3=O)CCCCC1` : 7.8

Observed IC50, Telomerase reverse transcriptase (Homo sapiens, UniProt O14746), `CN(C)CCC(=O)Nc1ccc2c(c1)C(=O)c1cc(NC(=O)CCN(C)C)ccc1C2=O` : 4.7

Observed IC50, Telomerase reverse transcriptase (Homo sapiens, UniProt O14746), `CCN(CC)CCC(=O)Nc1ccc2c(c1)C(=O)c1cc(NC(=O)CCN(CC)CC)ccc1C2=O` : 4.3

Observed IC50, Telomerase reverse transcriptase (Homo sapiens, UniProt O14746), `C[N+](C)(C)CCC(=O)Nc1ccc2c(c1)C(=O)c1cc(NC(=O)CC[N+](C)(C)C)ccc1C2=O` : 14.5

Observed IC50, Telomerase reverse transcriptase (Homo sapiens, UniProt O14746), `C[N+]1(CCC(=O)Nc2ccc3c(c2)C(=O)c2cc(NC(=O)CC[N+]4(C)CCOCC4)ccc2C3=O)CCOCC1` : 16.5

Observed IC50, Telomerase reverse transcriptase (Homo sapiens, UniProt O14746), `C[N+]1(CCC(=O)Nc2cccc3c2C(=O)c2c(NC(=O)CC[N+]4(C)CCCC4)cccc2C3=O)CCCC1` : 8.2

Observed IC50, Telomerase reverse transcriptase (Homo sapiens, UniProt O14746), `C[N+]1(CCC(=O)Nc2cccc3c2C(=O)c2cccc(NC(=O)CC[N+]4(C)CCOCC4)c2C3=O)CCOCC1` : 13.2

Observed IC50, Telomerase reverse transcriptase (Homo sapiens, UniProt O14746), `C[N+]1(CCC(=O)Nc2ccc3c(c2)C(=O)c2cc(NC(=O)CC[N+]4(C)CCCC4)ccc2C3=O)CCCC1` : 16

Observed IC50, Telomerase reverse transcriptase (Homo sapiens, UniProt O14746), `CN(C)CCC(=O)Nc1cccc2c1C(=O)c1c(NC(=O)CCN(C)C)cccc1C2=O` : 6.4
